Test system: COLO 205 colon
procedure.text: NCI tumour cell line growth inhibition, 48 h
Reported values of log10 of TGI for individual entries
value.type: log10 of TGI (log10 of the value in µM)

# molecule, log10 of TGI
data = [
    ("CCN(CC)c1c(C(=O)/C=C/c2ccc(Cl)cc2)c(-c2ccccc2)nn(C)c1=O", 0.60),
    ("N#CC1(C#N)C2(c3ccccc3)OC(c3ccccc3)(c3cc4ccccc4cc32)C1(C#N)C#N", 1.26),
    ("O=C1C(N2CCN(c3ccccn3)CC2)=C(Cl)C(=O)c2ncccc21", 0.54),
    ("Cc1ccc([N+](=O)[O-])cc1S(=O)(=O)Nc1ccc(C2=NOC(c3ccco3)C2)cc1 (stereo not given)", 1.91),
    ("CCN1C(=O)N(CC)C2C1NN=c1s/c(=C\\c3cccc(F)c3)c(=O)n12 (stereo not given)", 0.69),
    ("Cc1ccc(S(=O)(=O)N2CCC(=O)c3cc(Br)ccc32)cc1", 1.50),
    ("OCCOCCN1CCN(CCCN2c3ccccc3Sc3ccc(C(F)(F)F)cc32)CC1", 0.55),
]

---

Test system: LOX IMVI melanoma
procedure.text: NCI tumour cell line growth inhibition, 48 h

# molecule, units.of.measure, censoring.sign, TGI
data = [
    ("Fc1ccc(C2CC(c3cccc(Nc4ccncc4)c3)=NN2c2ccc(Cl)cc2)cc1 (stereo not given)", "µM", "=", 3.06),
    ("N=C1C(c2nc3ccccc3s2)=C(O)CN1c1ccc(F)c(Cl)c1", "µM", ">", 100),
    ("C=CCNC(=O)N(CCCCC(NC(C)=O)C(=O)NCc1ccccc1)Cc1ccccc1 (stereo not given)", "µM", ">", 100),
    ("C=C1C(=O)O[C@@H]2C[C@@H](C)[C@@H]3C=CC(=O)[C@@]3(C)[C@@H](O)[C@H]12", "µM", "=", 2.01),
    ("C/C(=N\\NC(=S)N1CC2CCC(CC2)C1)c1nccs1", "µM", "=", 9.09),
    ("COc1cc(C=O)cc(/C=N/n2c3ccccc3c3ccccc32)c1O", "µM", ">", 100),
    ("O=C(O)c1cc(CC2Cc3cc4c(cc3C2=O)CCC4)cc2c1CCC2 (stereo not given)", "µM", ">", 100),
    ("CNC(=O)Nc1nc2ccc([N+](=O)[O-])cc2[nH]1", "µM", ">", 100),
    ("C=C(C)[C@@H]1CC[C@]2(C)CC[C@]3(C)[C@H](CC[C@@H]4[C@@]5(C)CC[C@H](O)C(C)(C)[C@@H]5CC[C@]43C)[C@@H]12", "µM", "=", 36.3),
    ("Cc1cc(-c2cccc3ccccc23)c(C#N)c(=S)n1C1OC(CO)C(O)C(O)C1O (stereo not given)", "µM", ">", 100),
    ("CC(C)=CC1C[C@H](C2CC=C3C2(C)CCC2[C@@]3(C)C(=O)CC3[C@]2(C)C=CC(=O)[C@]3(C)CO)CO1 (stereo not given in full)", "µM", "=", 9.45),
    ("C=C1C(=O)O[C@H]2[C@H]1CC/C(CNC(=O)/C=C/c1cc(OC)c(OC)c(OC)c1)=C\\CC[C@@]1(C)O[C@@H]21", "µM", "=", 2.63),
    ("Cc1cc2c(cc1C)OC(=O)CC2", "µM", ">", 100),
    ("Cc1cc(C)n(-c2nsc3ccccc23)n1", "µM", ">", 100),
    ("CC(C)Cn1cnc2c(SCc3ccc(Cl)cc3Cl)nc(N)nc21", "µM", "=", 38.3),
    ("N#C[C@@H](c1nc2ccccc2s1)c1ncccc1[N+](=O)[O-]", "µM", "=", 13.9),
    ("O=NN1C(c2ccccc2)CC(=NO)CC1c1ccccc1 (stereo not given)", "µM", ">", 100),
    ("CCOC(=O)NC(Nc1ncccn1)(C(=O)OCC)C(F)(F)F (stereo not given)", "µM", ">", 100),
    ("C[C@]12C[C@H](CCCCCCNCCOC(=O)NCCCc3ccc(N(CCCl)CCCl)cc3)C3=C4CCC(=O)C=C4CCC3C1CC[C@@H]2O (stereo not given in full)", "µM", "=", 2.27),
    ("COC(=O)C1CC2CCC1(O[Si](C(C)C)(C(C)C)C(C)C)C(O)C2 (stereo not given)", "µM", "=", 27.5),
]
